tested on: corn; experiment: Test A preemergence; assay type: in vivo, Zea mays; conditions: 500 g ai/ha, 0 to 100 scale where 0 is no effect and 100 is complete control
Measured endpoint: Corn plant response rating
Simply state the number, no unit and no words.

Q) Request the reported Corn plant response rating associated with Clc1cnc(Oc2cccc(Cl)c2-n2cc(Cl)cn2)nc1 [Compound 220]
A) 10

Q) Quick one: N#Cc1cnn(-c2c(C#N)cccc2Oc2ncc(Cl)cn2)c1 [Compound 200]
A) 50

Q) Now the compound N#Cc1cccc(Oc2ncc(Cl)cn2)c1-n1cccn1 [Compound 208]
A) 0

Q) Consider next the compound Fc1cnc(Oc2cccc(C(F)F)c2-n2cc(C(F)(F)F)cn2)nc1 [Compound 164] in the same way.
A) 60

Q) Next up: C#Cc1cccc(Oc2ncc(Cl)cn2)c1-n1cc(Br)cn1 [Compound 199]
A) 0

Q) Same thing, different compound: O=Cc1cccc(Oc2ncc(Br)cn2)c1-n1cc(Cl)cn1 [Compound 206]
A) 0

Q) Record: FC(F)c1cccc(Oc2ncc(Cl)cn2)c1-n1cc(Cl)cn1 [Compound 209]
A) 20

###

test system: barnyardgrass; assay: Test C postemergence; type: in vivo, Echinochloa crus-galli; conditions: Postemergence, 62 g ai/ha; scale 0 to 100 (0 no effect, 100 complete control)
Measured endpoint: Plant response rating, Barnyardgrass
Answer using only a numeral; do not append any unit.

Q) Give Plant response rating, Barnyardgrass (barnyardgrass) of the following compound: Clc1cnc(Oc2cccc(Br)c2-n2cc(I)nn2)nc1 [Compound 117]
A) 5

Q) Please do the same for Clc1cnc(Oc2cccc(Cl)c2-n2cc(Cl)cn2)nc1 [Compound 220] as well.
A) 10

Q) Item: Fc1cnc(Oc2ccccc2-n2cc(C(F)F)cn2)nc1 [Compound 228]
A) 5

Q) Same thing, different compound: FC(F)(F)c1cnn(-c2c(Br)cccc2Oc2ncc(Cl)cn2)c1 [Compound 191]
A) 15

Q) Here is the next compound: N#Cc1cccc(Oc2ncc(Cl)cn2)c1-n1cc(OC(F)F)cn1 [Compound 97]
A) 10

Q) Similarly, Clc1cnc(Oc2ccccc2-n2cc(Br)nn2)nc1 [Compound 223] ?
A) 5

Q) And what about the compound Fc1cnc(Oc2ccccc2-n2cc(C(F)(F)F)cn2)nc1 [Compound 47] ?
A) 0

###

tested on: giant foxtail; experiment: Test A postemergence; assay type: in vivo, Setaria faberii; settings: 31 g ai/ha, 0 to 100 scale, 0 no effect, 100 complete control
Provide the reported Plant response rating, Foxtail, Giant of each item.
Answer with the value's number alone.

Q) # lookup: Plant response rating, Foxtail, Giant of `COc1cccc(Oc2ncc(Cl)cn2)c1-n1cc(Cl)cn1`
A) 0

Q) Here is the next compound: `N#Cc1cnn(-c2c(Br)cccc2Oc2ncc(Cl)cn2)c1`
A) 30

Q) Proceed to `FCc1cccc(Oc2ncc(Cl)cn2)c1-n1cc(I)cn1`
A) 0

Q) Please answer likewise for `FC(F)Oc1cnn(-c2c(Br)cccc2Oc2ncc(Cl)cn2)c1`
A) 10

Q) Same question for `FC(F)(F)Sc1cnn(-c2ccccc2Oc2ncc(Br)cn2)c1` please.
A) 0

###

system: pigweed; assay: Test C postemergence; assay type: in vivo, Amaranthus retroflexus; settings: 31 g ai/ha, postemergence; visual rating, scale 0 to 100 (0 no effect, 100 complete control), 13 to 15 days
Measured endpoint: Pigweed plant response rating

Q) Fill in: Pigweed plant response rating of `FC(F)c1cccc(Oc2ncc(Br)cn2)c1-n1cc(C(F)(F)F)cn1` is ___
A) 85

Q) One more compound: `FCc1cccc(Oc2ncc(Cl)cn2)c1-n1cc(I)cn1`
A) 55

Q) Again, but for `N#Cc1cnn(-c2c(Oc3ncc(F)cn3)cccc2C(F)F)c1`
A) 30

Q) # iterate: `FC(F)(F)c1cnn(-c2c(Br)cccc2Oc2ncc(Cl)cn2)c1`
A) 85

###

system: rice; assay: Test B flooded paddy test; type: in vivo, Oryza sativa; details: Flood, 250 g ai/ha; 0 to 100 scale where 0 is no effect and 100 is complete control
Measured endpoint: Plant response rating, Rice
Give the figure by itself; no unit, no explanation.

Q) For rice, provide Plant response rating, Rice of Cc1noc(-c2cccc(Oc3ncc(Cl)cn3)c2-n2cc(C(F)(F)F)cn2)n1 [Compound 299] please.
A) 15

Q) How about O=Cc1cccc(Oc2ncc(Cl)cn2)c1-n1cc(I)cn1 [Compound 182] ?
A) 0

Q) Would you kindly repeat that for Cc1cnn(-c2c(C#N)cccc2Oc2ncc(Cl)cn2)c1 [Compound 95] ?
A) 0

Q) Here is the next compound: COc1cnn(-c2ccccc2Oc2ncc(Cl)cn2)c1 [Compound 186]
A) 0

Q) Next record, please: Fc1cnc(Oc2cccc(Cl)c2-n2cc(OC(F)F)cn2)nc1 [Compound 101]
A) 0

###

Could you please report measured Plant response rating, Barnyardgrass for the items listed next?
tested on: barnyardgrass; experiment: Test A preemergence; type: in vivo, Echinochloa crus-galli; conditions: 31 g ai/ha, 0 to 100 scale where 0 is no effect and 100 is complete control, visual, approximately 10 days

Q) So what's the measured Plant response rating, Barnyardgrass for this one? Fc1cnc(Oc2cccc(Br)c2-n2cc(OCC(F)(F)F)cn2)nc1 [Compound 157]
A) 20

Q) Also, Fc1cccc(Oc2ncc(Cl)cn2)c1-n1cc(OC(F)F)cn1 [Compound 271] please.
A) 20

Q) Cool, now O=Cc1cn(-c2ccccc2Oc2ncc(Cl)cn2)nn1 [Compound 272]
A) 0

Q) # iterate: COc1cccc(Oc2ncc(Cl)cn2)c1-n1cc(Cl)cn1 [Compound 169]
A) 10

Q) Another: Cc1cc(C(F)(F)F)nn1-c1ccccc1Oc1ncc(Cl)cn1 [Compound 266]
A) 0

Q) # iterate: FCc1cccc(Oc2ncc(Cl)cn2)c1-n1cc(I)cn1 [Compound 245]
A) 0

Q) Entry to check: FCc1cccc(Oc2ncc(F)cn2)c1-n1cc(I)cn1 [Compound 152]
A) 20

###

test system: pigweed; test: Test C postemergence; assay type: in vivo, Amaranthus retroflexus; settings: Postemergence, 62 g ai/ha; scale 0 to 100 (0 no effect, 100 complete control)
Measured endpoint: Plant response rating, Pigweed
Answer with a number only.

Q) I have this compound here, Cc1cnc(Oc2cccc(C#N)c2-n2cc(C#N)cn2)nc1 [Compound 90] , and I need its recorded Plant response rating, Pigweed.
A) 45

Q) Consider next the compound Fc1cnc(Oc2ccccc2-n2cc(C(F)(F)F)cn2)nc1 [Compound 47] in the same way.
A) 55

Q) Further, for N#Cc1cnn(-c2c(Br)cccc2Oc2ncc(Cl)cn2)c1 [Compound 140] ?
A) 90

Q) Try this compound next: FC(F)(F)c1cnn(-c2c(Br)cccc2Oc2ncc(Cl)cn2)c1 [Compound 191]
A) 95

Q) Okay, and FC(F)Oc1cnn(-c2ccccc2Oc2ncc(Cl)cn2)c1 [Compound 98] ?
A) 75

###

tested on: ragweed; assay: Test A postemergence; assay type: in vivo, Ambrosia elatior; settings: 500 g ai/ha, 0 to 100 scale where 0 is no effect and 100 is complete control
From the text: […]
Can you tell me Plant response rating, Ragweed for the items I'm about to list?
Returns: the value as a bare number; no unit string appended.

Q) Using the record for `N#Cc1cccc(Oc2ncc(Cl)cn2)c1-n1cc(SC(F)(F)F)cn1` , report its Plant response rating, Ragweed.
A) 60

Q) And then CC(F)c1cccc(Oc2ncc(Cl)cn2)c1-n1cc(Br)cn1 (stereo not shown) , what is it?
A) 10

Q) Ok, now `FC(F)c1cn(-c2ccccc2Oc2ncc(Cl)cn2)nn1`
A) 100

Q) Here is the next compound: `COc1ccc(C#N)c(-n2cc(Br)cn2)c1Oc1ncc(Cl)cn1`
A) 10

###

system: giant foxtail; experiment: Test A preemergence; type: in vivo, Setaria faberii; details: 125 g ai/ha, 0 to 100 scale where 0 is no effect and 100 is complete control
Answer each item with its documented Plant response rating, Foxtail, Giant.
Give the value as a plain number.

Q) I'd like to know its Plant response rating, Foxtail, Giant. The compound in question is `N#Cc1cccc(Oc2ncc(Br)cn2)c1-n1cc(Cl)cn1`
A) 100

Q) // next record `CC=Cc1cnn(-c2ccccc2Oc2ncc(Cl)cn2)c1`
A) 0

Q) Now give it for `FC(F)(F)COc1cnn(-c2c(Cl)cccc2Oc2ncc(Cl)cn2)c1` too.
A) 100

Q) Follow-up item: `N#Cc1cnn(-c2ccccc2Oc2ncc(Cl)cn2)c1`
A) 90

Q) Moving on to the next compound: `N#Cc1cnn(-c2c(C#N)cccc2Oc2ncc(Br)cn2)c1`
A) 70

###

test system: barnyardgrass; test: Test A preemergence; assay type: in vivo, Echinochloa crus-galli; settings: 500 g ai/ha, 0 to 100 scale where 0 is no effect and 100 is complete control
Measured endpoint: Barnyardgrass plant response rating
# respond with the number and nothing more

Q) Could you tell me which Barnyardgrass plant response rating is on file for `FC(F)c1cccc(Oc2ncc(Br)cn2)c1-n1cc(Cl)cn1` ?
A) 70

Q) Now consider `N#Cc1cc(F)cc(Oc2ncc(Cl)cn2)c1-n1cc(Br)cn1` and answer again.
A) 100

Q) Then `COc1cnc(Oc2ccccc2-n2cccn2)nc1` ?
A) 0

Q) Repeat for the following compound: `CCOC(=O)c1cnn(-c2c(C#N)cccc2Oc2ncc(Br)cn2)c1`
A) 20

Q) Try `Fc1cnc(Oc2ccccc2-n2cc(C(F)F)cn2)nc1` next.
A) 100

Q) One more compound: `Clc1cnc(Oc2cccc(-c3cnoc3)c2-n2cc(Br)cn2)nc1`
A) 50

Q) // next record `NN=Cc1cccc(Oc2ncc(Cl)cn2)c1-n1cc(Cl)cn1`
A) 0

Q) One more compound: `FC(F)c1cnn(-c2c(Cl)cccc2Oc2ncc(Cl)cn2)c1`
A) 100

Q) Could you do the same for `C#Cc1cccc(Oc2ncc(Cl)cn2)c1-n1cc(Br)cn1` , please?
A) 80

Q) # repeat for `O=Cc1cccc(Oc2ncc(Br)cn2)c1-n1cc(Br)cn1`
A) 0

Q) And `O=Cc1cccc(Oc2ncc(I)cn2)c1-n1cc(Br)cn1` ?
A) 0

Q) Quick one: `CC(C)c1cnc(Oc2cccc(C#N)c2-n2cc(Br)cn2)nc1`
A) 0

Q) Next up: `FC(F)c1cccc(Oc2ncc(Cl)cn2)c1-n1cc(Cl)cn1`
A) 100

Q) Please give the result for `Fc1cc(Oc2ncc(Cl)cn2)c(-n2cc(Br)cn2)cc1F` too.
A) 40

Q) What about `CC1(C)OB(c2cnn(-c3c(C#N)cccc3Oc3ncc(Cl)cn3)c2)OC1(C)C` ?
A) 30

Q) `N#Cc1cccc(Oc2ncc(Cl)cn2)c1-n1cccn1` ?
A) 70

Q) Also check CC(F)c1cccc(Oc2ncc(Cl)cn2)c1-n1cc(Br)cn1 (stereo not drawn)
A) 90

Q) Another compound: `Clc1cnc(Oc2cccc(-c3ncco3)c2-n2cc(Br)cn2)nc1`
A) 0

Data provenance: patent US9695155B2
